Target: RSV F protein of recombinant mKate-RSV, subtype B (18537) (Respiratory syncytial virus subtype B …, UniProt P13843 26-574)
Assay: cell-based or functional assay
We begin with a simple list: items and their reported Neut IC50 subtype B.
value_type: Neut IC50 subtype B (µg/mL)

INSERT INTO results (binder, endpoint_result) VALUES
  ('ADI-14502 (antibody, V domains shown) VH: QVQLVQSGAEVKKPGSSVKVSCKASGDTFSMYAISWVRQAPGQGLEWMGGVLPMLGTSNYAQQFRGRVTITADGSTSTAYMEMSNLRFEDTAVYYCARVAGLGNSYGRYFDVWGQGTLVTVSS VL: DIRMTQSPSSVSASIGDRVTITCRASQDISTSLAWYQQRPGKAPNLLIYAASTLHSGVPSRFRGSESGPDFTLTISSLQPEDVGTYYCQQAKSFPYTFGQGTKLEIK', 2.72),
  ('ADI-14508 (antibody, V domains shown) VH: QVQLVQSGTEVKKPGASVKVSCKGSGYMFANFGVSWVRQAPGRGLEWIGWISAYNGNTYYGREQGRFTMTTDTNTAYLELTSLRYDDTALYFCARDSGATAAGILWDYWGQGTLVTVSS VL: EIVMTQSPLSLPVTLGQPASISCRSSQSLAYTDGSTYLNWFHQRPGQSPRRLIYKVFNRDSGVPDRFSGSGAGTDFTLTISRVEAEDVGVYYCMQATHWPRTFGQGTKVDIK', 0.057),
  ('ADI-14468 (antibody, V domains shown, full-length IgG (yeast-expressed); also called Antibody Number 31; Ab# 31) VH: QVQLVQSGPTLVRPTQTLTLTCTFSGFSLSTRGVGVGWVRQSPGKAPEFLVLAHWDDDKIYSPSLRRRLSVTKDVSKNQVVLALTNVDPVDTGTYFCVKSDLYDRGGYYLYYFDHWGQGTLVTVSS VL: DIRMTQSPSSLSASVGDRVTITCRASQTIASYVNWYLQRPGEAPKLLIYAASNLHSGAPPSLIGRGSGTDFTLTINTLQPEHFGTYFCQQTFSSPYTFGQGTKVEIK', 2.41),
  ('ADI-14458 (antibody, V domains shown, full-length IgG (yeast-expressed); also called Antibody Number 21; Ab# 21) VH: QVQLVESGGGLVKPGGSLRLSCAASGFIFSNAWMSWVRQSPGKGLEWVGRIKTKTEGATTDHAAPLKGRFTISRDDSRNTLYLQMDSLTTEDTAVYFCTTGPPYSYFDSTGYSIVDYWGQGTLVTVSS VL: SYELTQPPAASGTPGQRVTISCSGSSSNIGSEYVLWYQQVPGTAPKLLIYNSHQRPSGVPDRISGSRSGTSASLAISGLRSEDEAHYYCASWDDSLSGPVFGGGTQLTVL', 0.104),
  ('ADI-14500 (antibody, V domains shown, full-length IgG (yeast-expressed); also called Antibody Number 61; Ab# 61) VH: EVQLLESGGGLVKPGGSLRLSCAASGFIFNNAWMTWVRQAPGRGLEWVGRIKTNADGGTADYSTPVKGRFAISRDDSTNTLYLQMNSLKTEDTAVYYCTTGPPYKYSDSTGYSVVDYWGQGTLVTVSS VL: SYELTQPPSASGTPGQRVTISCSGSSSNIGSNYVYWYQQLPGTAPKLLIYSTNQRPSGVPDRFSGSQSGTSASLAISGLRSEDEADYYCAAWDDRLSGPVFGGGTQLTVL', 0.552);
